Consider the following molecules and their measured IC50 readings.
- study-system: human 11β-HSD1 (Homo sapiens, UniProt P28845)
- Construct: 100 ug/ml human/mouse liver microsomes; from tissue; host or cells: human liver microsomes
- Sequence (P28845 whole entry): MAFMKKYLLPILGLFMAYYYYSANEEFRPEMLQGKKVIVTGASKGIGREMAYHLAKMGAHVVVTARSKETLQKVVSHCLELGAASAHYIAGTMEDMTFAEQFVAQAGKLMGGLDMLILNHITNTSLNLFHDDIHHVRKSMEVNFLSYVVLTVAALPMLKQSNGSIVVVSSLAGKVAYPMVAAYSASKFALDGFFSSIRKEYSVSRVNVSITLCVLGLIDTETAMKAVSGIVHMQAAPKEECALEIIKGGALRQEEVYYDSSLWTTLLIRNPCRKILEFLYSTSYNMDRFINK
- assay-info: Enzyme activity analysis on human 11β-HSD1 (HTRF cortisol, liver microsomes)
- Format: biochemical
- measurement-setup: first value of cell
- Protocol: After culturing at 37° C. for 2 hours, 5 μl of cryptate-labeled anti-cortisol antibody and 5 μl of d2-labeled cortisol were added thereto. After further culturing at room temperature for 2 hours, a homogeneous time-resolved fluorescence (HTRF, Cisbio) signal was measured. From each analysis, based on a standard curve calculated using cortisols of several known concentrations, an amount of produced cortisol was tested. […]

molecule	unit-name	comparison-symbol	IC50
CC(C)(NS(=O)(=O)Cc1ccc(Cl)c(Cl)c1)C(=O)NC1C2CC3CC(C2)CC1C3 (centres unmarked)	µM	>	2.5
CN(C1(C(=O)NC2C3CC4CC2CC(C(N)=O)(C4)C3)CCC1)S(=O)(=O)c1ccccc1[N+](=O)[O-] (centres unmarked)	µM	=	0.004
NC(=O)C12CC3CC(C1)C(NC(=O)C1(NS(=O)(=O)c4ccccc4Cl)CCCCC1)C(C3)C2 (centres unmarked)	µM	=	0.008
CC(C)(NS(=O)(=O)c1ccccc1F)C(=O)NC1C2CC3CC(C2)CC1C3 (centres unmarked)	µM	=	0.034
CC(C)(NS(=O)(=O)c1ccc(Cl)cc1)C(=O)NC1C2CC3CC(C2)CC1C3 (centres unmarked)	µM	=	0.43

###

Consider the following molecules and their measured IC50 readings.
- study-system: human 11β-HSD1 (Homo sapiens)
- Construct: 100 ug/ml human/mouse liver microsomes; from tissue; host or cells: human liver microsomes
- assay-info: Enzyme activity analysis on human 11β-HSD1 (HTRF cortisol, liver microsomes)
- Format: biochemical
- measurement-setup: first value of cell

molecule	IC50
Cc1ccc(S(=O)(=O)NC(C)(C)C(=O)NC2C3CC4CC2CC(C(N)=O)(C4)C3)cc1[N+](=O)[O-] (stereo not drawn)	0.093 µM
CC(C)(NS(=O)(=O)c1ccc(Cl)cc1Cl)C(=O)NC1C2CC3CC1CC(C(N)=O)(C3)C2 (stereo not drawn)	0.014 µM
COc1cccc(F)c1S(=O)(=O)N(C)C(C)(C)C(=O)NC1C2CC3CC1CC(C(N)=O)(C3)C2 (stereo not drawn)	0.012 µM
O=C(NC1C2CC3CC(C2)CC1C3)C1(NS(=O)(=O)c2ccccc2OC(F)(F)F)CCC1 (stereo not drawn)	0.265 µM
Cc1ccc(S(=O)(=O)NC2(C(=O)NC3C4CC5CC3CC(C(N)=O)(C5)C4)CCCCC2)cc1F (stereo not drawn)	0.076 µM
O=C(NC1C2CC3CC(C2)CC1C3)C1(NS(=O)(=O)c2cccc3cccnc23)CCC1 (stereo not drawn)	0.139 µM
O=C(NC1C2CC3CC(C2)CC1C3)C1(NS(=O)(=O)c2ccc([N+](=O)[O-])cc2)CCC1 (stereo not drawn)	> 2.5 µM
CC(C)(NS(=O)(=O)CCc1cccc2ccccc12)C(=O)NC1C2CC3CC(C2)CC1C3 (stereo not drawn)	1.17 µM
CN(C(C)(C)C(=O)NC1C2CC3CC(C2)CC1C3)S(=O)(=O)c1ccccc1C(F)(F)F (stereo not drawn)	0.012 µM
CC(C)(NS(=O)(=O)c1ccccc1C#N)C(=O)NC1C2CC3CC1CC(C(N)=O)(C3)C2 (stereo not drawn)	0.078 µM
Cc1c(Cl)cccc1S(=O)(=O)NC1(C(=O)NC2C3CC4CC2CC(C(N)=O)(C4)C3)CCCCC1 (stereo not drawn)	0.023 µM
Cc1ccc(S(=O)(=O)NC(C)(C)C(=O)NC2C3CC4CC2CC(C(N)=O)(C4)C3)cc1Cl (stereo not drawn)	0.026 µM
CC(C)(NS(=O)(=O)c1ccc(F)cc1Br)C(=O)NC1C2CC3CC1CC(C(N)=O)(C3)C2 (stereo not drawn)	0.009 µM
CC(C)(NS(=O)(=O)c1cccc(Cl)c1Cl)C(=O)NC1C2CC3CC1CC(O)(C3)C2 (stereo not drawn)	0.017 µM
CC(C)(NS(=O)(=O)c1ccccc1)C(=O)NC1C2CC3CC1CC(O)(C3)C2 (stereo not drawn)	0.093 µM
CN(C(C)(C)C(=O)NC1C2CC3CC1CC(O)(C3)C2)S(=O)(=O)c1ccccc1F (stereo not drawn)	0.011 µM
NC(=O)C12CC3CC(C1)C(NC(=O)C1(NS(=O)(=O)c4cccc5cccnc45)CCCCC1)C(C3)C2 (stereo not drawn)	0.018 µM
NC(=O)C12CC3CC(C1)C(NC(=O)C1(NS(=O)(=O)c4ccc(Br)cc4Cl)CCC1)C(C3)C2 (stereo not drawn)	0.04 µM
CC(C)(NS(=O)(=O)c1cc(Cl)cc(Cl)c1)C(=O)NC1C2CC3CC(C2)CC1C3 (stereo not drawn)	1.27 µM
CCN(C(C)(C)C(=O)NC1C2CC3CC1CC(C(N)=O)(C3)C2)S(=O)(=O)c1ccccc1Cl (stereo not drawn)	0.004 µM
CC(C)(NS(=O)(=O)c1ccccc1Cl)C(=O)NC1C2CC3CC(C2)CC1C3 (stereo not drawn)	0.02 µM
NC(=O)C12CC3CC(C1)C(NC(=O)C1(NS(=O)(=O)c4ccccc4[N+](=O)[O-])CCCC1)C(C3)C2 (stereo not drawn)	0.014 µM
NC(=O)C12CC3CC(C1)C(NC(=O)C1(NS(=O)(=O)c4cccc(Cl)c4Cl)CC1)C(C3)C2 (stereo not drawn)	0.009 µM
NC(=O)C12CC3CC(C1)C(NC(=O)C1(NS(=O)(=O)c4cccc5cccnc45)CC1)C(C3)C2 (stereo not drawn)	0.042 µM
NC(=O)C12CC3CC(C1)C(NC(=O)C1(NS(=O)(=O)c4ccccc4Br)CC1)C(C3)C2 (stereo not drawn)	0.008 µM
CC(C)(NS(=O)(=O)c1ccc(-c2ccccc2)cc1)C(=O)NC1C2CC3CC(C2)CC1C3 (stereo not drawn)	1.8 µM
Cc1ccc(S(=O)(=O)NC(C)(C)C(=O)NC2C3CC4CC(C3)CC2C4)cc1F (stereo not drawn)	0.555 µM
CN(C(C)(C)C(=O)NC1C2CC3CC1CC(C(N)=O)(C3)C2)S(=O)(=O)c1ccccc1N (stereo not drawn)	0.011 µM
NC(=O)C12CC3CC(C1)C(NC(=O)C1(NS(=O)(=O)c4ccccc4OC(F)(F)F)CCC1)C(C3)C2 (stereo not drawn)	0.018 µM
CC(C)(NS(=O)(=O)c1ccccc1Br)C(=O)NC1C2CC3CC1CC(C(N)=O)(C3)C2 (stereo not drawn)	0.011 µM

###

- study-system: human 11β-HSD1 (Homo sapiens, UniProt P28845)
- Construct: 100 ug/ml human/mouse liver microsomes; from tissue; host or cells: human liver microsomes
- assay-info: Enzyme activity analysis on human 11β-HSD1 (HTRF cortisol, liver microsomes)
- Format: biochemical
- measurement-setup: first value of cell
So basically, if IC50 comes in under 0.04 µM it's Met, and if it's 0.04 µM or more it's Not met.

compound	study-system	label-class
CCN(C(C)(C)C(=O)NC1C2CC3CC1CC(C(N)=O)(C3)C2)S(=O)(=O)c1ccccc1C (centres unmarked)	human 11β-HSD1 (Homo sapiens, UniProt P28845)	Met
CC(C)(NS(=O)(=O)c1ccc(Cl)cc1F)C(=O)NC1C2CC3CC(C2)CC1C3 (centres unmarked)	human 11β-HSD1 (Homo sapiens, UniProt P28845)	Not met
CNC(=O)C12CC3CC(C1)C(NC(=O)C1(NS(=O)(=O)c4ccccc4Cl)CCC1)C(C3)C2 (centres unmarked)	human 11β-HSD1 (Homo sapiens, UniProt P28845)	Not met
Cc1c(Cl)cccc1S(=O)(=O)N(C)C(C)(C)C(=O)NC1C2CC3CC(C2)CC1C3 (centres unmarked)	human 11β-HSD1 (Homo sapiens, UniProt P28845)	Met
COc1ccc(S(=O)(=O)NC(C)(C)C(=O)NC2C3CC4CC(C3)CC2C4)c(OC)c1 (centres unmarked)	human 11β-HSD1 (Homo sapiens, UniProt P28845)	Not met
CC(C)(NS(=O)(=O)c1ccccc1C(F)(F)F)C(=O)NC1C2CC3CC1CC(C(N)=O)(C3)C2 (centres unmarked)	human 11β-HSD1 (Homo sapiens, UniProt P28845)	Met
CC(C)(NS(=O)(=O)c1ccccc1OC(F)(F)F)C(=O)NC1C2CC3CC(C2)CC1C3 (centres unmarked)	human 11β-HSD1 (Homo sapiens, UniProt P28845)	Not met
CN(C(C)(C)C(=O)NC1C2CC3CC1CC(O)(C3)C2)S(=O)(=O)c1ccccc1[N+](=O)[O-] (centres unmarked)	human 11β-HSD1 (Homo sapiens, UniProt P28845)	Met

###

- study-system: human 11β-HSD1 (Homo sapiens, UniProt P28845)
- Construct: 100 ug/ml human/mouse liver microsomes; from tissue; host or cells: human liver microsomes
- assay-info: Enzyme activity analysis on human 11β-HSD1 (HTRF cortisol, liver microsomes)
- Assay type: biochemical
- measurement-setup: first value of cell
- Procedure: After culturing at 37° C. for 2 hours, 5 μl of cryptate-labeled anti-cortisol antibody and 5 μl of d2-labeled cortisol were added thereto. After further culturing at room temperature for 2 hours, a homogeneous time-resolved fluorescence (HTRF, Cisbio) signal was measured. From each analysis, based on a standard curve calculated using cortisols of several known concentrations, an amount of produced cortisol was tested. […]

compound	IC50, µM
CC(C)(NS(=O)(=O)c1ccc(F)cc1C(F)(F)F)C(=O)NC1C2CC3CC(C2)CC1C3 (stereo not shown)	0.051
Cc1cc(F)ccc1S(=O)(=O)NC(C)(C)C(=O)NC1C2CC3CC(C2)CC1C3 (stereo not shown)	0.043
CC(C)(NS(=O)(=O)c1cccc(Cl)c1F)C(=O)NC1C2CC3CC1CC(C(N)=O)(C3)C2 (stereo not shown)	0.02
CC(C)(NS(=O)(=O)c1ccc(F)cc1)C(=O)NC1C2CC3CC(C2)CC1C3 (stereo not shown)	0.1
NC(=O)C12CC3CC(C1)C(NC(=O)C1(NS(=O)(=O)c4cccc(Cl)c4F)CCCC1)C(C3)C2 (stereo not shown)	0.009
Cc1ccc(S(=O)(=O)NC(C)(C)C(=O)NC2C3CC4CC(C3)CC2C4)cc1Cl (stereo not shown)	0.215
CC(C)(NS(=O)(=O)c1c(F)cccc1F)C(=O)NC1C2CC3CC1CC(O)(C3)C2 (stereo not shown)	0.079
CC(C)(NS(=O)(=O)c1c(Cl)cccc1Cl)C(=O)NC1C2CC3CC(C2)CC1C3 (stereo not shown)	0.009
CCCN(C(C)(C)C(=O)NC1C2CC3CC1CC(C(N)=O)(C3)C2)S(=O)(=O)c1ccccc1C(F)(F)F (stereo not shown)	0.053
Cc1cccc(S(=O)(=O)NC(C)(C)C(=O)NC2C3CC4CC(C3)CC2C4)c1 (stereo not shown)	0.133
CC(C)(NS(=O)(=O)c1ccc(OC(F)(F)F)cc1)C(=O)NC1C2CC3CC(C2)CC1C3 (stereo not shown)	1.32
CC(C)(NS(=O)(=O)c1cc(F)ccc1F)C(=O)NC1C2CC3CC1CC(C(N)=O)(C3)C2 (stereo not shown)	0.051
O=C(NC1C2CC3CC(C2)CC1C3)C1(NS(=O)(=O)c2ccccc2[N+](=O)[O-])CCC1 (stereo not shown)	0.255
CC(C)(NS(=O)(=O)c1ccccc1[N+](=O)[O-])C(=O)NC1C2CC3CC(C2)CC1C3 (stereo not shown)	0.016
CC(C)(NS(=O)(=O)c1cc(Cl)cc(Br)c1)C(=O)NC1C2CC3CC1CC(C(N)=O)(C3)C2 (stereo not shown)	0.021
CN(C(C)(C)C(=O)NC1C2CC3CC1CC(C(N)=O)(C3)C2)S(=O)(=O)c1ccccc1[N+](=O)[O-] (stereo not shown)	0.004

Recorded values, source patent US9073830B2.
